assay: Distribution coefficient between n-Octanol and aqueous buffer, logD of the compound in pH 7.4 buffer by LC/MS analysis; format: physicochemical
Value kind: logD

Output logD of `O[C@@H](CN1[C@@H]2CC[C@H]1C/C(=C\c1ccc(F)cc1)C2)c1ccccc1`
3.06

* * *

Here, each record is paired with measured Ki data.
Molecular target: Sigma intracellular receptor 2 (Rattus norvegicus, UniProt Q5U3Y7)
Sequence (Q5U3Y7 whole entry): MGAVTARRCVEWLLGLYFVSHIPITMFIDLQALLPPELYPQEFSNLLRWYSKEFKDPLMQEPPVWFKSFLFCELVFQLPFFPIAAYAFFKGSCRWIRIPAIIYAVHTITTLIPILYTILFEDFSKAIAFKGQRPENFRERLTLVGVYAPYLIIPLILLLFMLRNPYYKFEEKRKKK
Assay: Displacement of [3H]di-O-tolylguanidine from sigma 2 receptor in rat liver membrane by competitive radioligand receptor binding assay
Assay type: cell membranes
Form entry: value (µM) — number only.

Worked cases, answers included:
> print(dat)
                                   molecule  recorded.measurement
1  O[C@@H](CN1[C@@H]2CC[C@H]1C/C(=C/c1ccc(F)cc1)C2)c1ccccc1                 0.029
2  O[C@H](CN1[C@@H]2CC[C@H]1C/C(=C\c1ccc(F)cc1)C2)c1ccccc1                 0.027
3  OC(CN1CCC(Cc2ccc(F)cc2)CC1)c1ccc(Cl)cc1 (stereo not given)                 0.071
4  O[C@@H](CN1[C@@H]2CC[C@H]1C/C(=C\c1ccc(F)cc1)C2)c1ccccc1                  0.01

For the next question, use this molecule.
Output Ki of `O[C@H](CN1[C@@H]2CC[C@H]1C/C(=C/c1ccc(F)cc1)C2)c1ccccc1`
0.011
